assay: Stability testing of steroids combined with povidone iodine (PVP-I, 0.4%), HPLC/UV with LC-MS/MS confirmation; conditions: 2 weeks, room temp, with PVP-I 0.4%
property: % of Day 0 (%)

molecule	unit annotation	% of Day 0
CCCC(=O)O[C@]1(C(=O)COC(C)=O)CC[C@H]2[C@@H]3C[C@H](F)C4=CC(=O)C=C[C@]4(C)[C@@]3(F)[C@@H](O)C[C@@]21C [Difluprednate]	%	103.23
CCOC(=O)O[C@]1(C(=O)OCCl)CC[C@H]2[C@@H]3CCC4=CC(=O)C=C[C@]4(C)[C@H]3[C@@H](O)C[C@@]21C [Loteprednol Etabonate]	%	101.43
C[C@@H]1C[C@H]2[C@@H]3CCC4=CC(=O)C=C[C@]4(C)[C@@]3(F)[C@@H](O)C[C@]2(C)[C@@]1(O)C(=O)COP(=O)([O-])[O-].[Na+].[Na+] [Dexamethasone Sodium Phosphate]	%	83.04
CC(=O)OCC(=O)[C@@]1(O)CC[C@H]2[C@@H]3CCC4=CC(=O)C=C[C@]4(C)[C@H]3[C@@H](O)C[C@@]21C [Prednisolone Acetate]	%	99.24

----------
assay: Stability testing of steroids and NSAIDS combined with 0.6% povidone iodine at room temperature; details: four weeks, room temperature, 0.6% PVP-I, mean of replicates
property: % of Std (%)

compound	obs value
NC(=O)Cc1cccc(C(=O)c2ccccc2)c1N	95.94
Nc1c(CC(=O)O)cccc1C(=O)c1ccc(Br)cc1	98.23
CCC(=O)[C@@]1(C)[C@H](C)C[C@H]2[C@@H]3CCC4=CC(=O)C=C[C@]4(C)[C@H]3[C@@H](O)C[C@@]21C [Rimexolone, rimexolone]	99.55
CC(=O)OCC(=O)[C@@]1(O)CC[C@H]2[C@@H]3CCC4=CC(=O)CC[C@]4(C)[C@H]3[C@@H](O)C[C@@]21C [Hydrocortisone acetate, hydrocortisone acetate]	101.53
CC(=O)[C@@]1(O)CC[C@H]2[C@@H]3C[C@H](C)C4=CC(=O)C=C[C@]4(C)[C@@]3(F)[C@@H](O)C[C@@]21C	99.7
C[C@]12C=CC(=O)C=C1CC[C@@H]1[C@@H]2C(=O)C[C@@]2(C)[C@H]1CC[C@]2(O)C(=O)COP(=O)([O-])[O-].[Na+].[Na+] [Prednisone sodium phosphate, prednisone sodium phosphate]	93.52
